- Tested on: CTB-1 (B-Cell Non-Hodgkin's Lymphoma)
- procedure-text: combination Emax (second highest fraction inhibited in the dose matrix, 72 h); higher = more inhibition; extreme values may be limits of the assay
Listing of entries alongside the reported combination Emax.

compound	combination Emax
CC1(C)CCC(CN2CCN(c3ccc(C(=O)NS(=O)(=O)c4ccc(NCC5CCOCC5)c([N+](=O)[O-])c4)c(Oc4cnc5[nH]ccc5c4)c3)CC2)=C(c2ccc(Cl)cc2)C1 [Venetoclax] + C[C@@H](Nc1cc(F)cc(F)c1)c1cc(C(=O)N(C)C)cc2c(=O)cc(N3CCOCC3)oc12 [AZD8186] (first compound max 1 µM, 7x7, partner max 3 µM)	0.288
CC1(C)CCC(CN2CCN(c3ccc(C(=O)NS(=O)(=O)c4ccc(NCC5CCOCC5)c([N+](=O)[O-])c4)c(Oc4cnc5[nH]ccc5c4)c3)CC2)=C(c2ccc(Cl)cc2)C1 [Venetoclax] + COc1cc(Nc2ncc3c(n2)-c2ccc(Cl)cc2C(c2c(F)cccc2OC)=NC3)ccc1C(=O)O [Alisertib] (first compound max 1 µM, 7x7, partner max 10 µM)	0.75

====

- Test system: TE-4 (Esophageal Squamous Cell Carcinoma);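 note: after 72 h of two-drug dosing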
- procedure-text: Bliss excess, mean over the matrix (fraction); higher = more synergy
Short version: Bliss excess at least -0.02 is TRUE, less is FALSE.

molecule	discrete-label
CN(C)CCCOc1ccc(-c2ccc3ncc4c(c3c2)n(C2CCOCC2)c(=O)n4C)cn1 [AZD0156] + C=CCn1c(=O)c2cnc(Nc3ccc(N4CCN(C)CC4)cc3)nc2n1-c1cccc(C(C)(C)O)n1 [AZD1775] (first compound max 1 µM, partner max 1 µM)	FALSE
CC1(C)CCC(CN2CCN(c3ccc(C(=O)NS(=O)(=O)c4ccc(NCC5CCOCC5)c([N+](=O)[O-])c4)c(Oc4cnc5[nH]ccc5c4)c3)CC2)=C(c2ccc(Cl)cc2)C1 [Venetoclax] + Cn1cnc2c(F)c(Nc3ccc(Br)cc3Cl)c(C(=O)NOCCO)cc21 [Selumetinib] (first compound max 1 µM, 7x7, partner max 3 µM)	FALSE
CN(CCO)CC[C@H](CSc1ccccc1)Nc1ccc(S(=O)(=O)NC(=O)c2ccc(N3CCC([C@@H](O)c4ccccc4-c4ccc(Cl)cc4)CC3)cc2)cc1S(=O)(=O)C(F)(F)F [AZD4320] + C[C@@H]1COCCN1C2=NC(=NC(=C2)C3(CC3)[S@](=N)(=O)C)C4=C5C=CNC5=NC=C4 [AZD6738] (first compound max 1 µM, 7x7, partner max 10 µM)	TRUE
NC1(C(=O)N[C@@H](CCO)c2ccc(Cl)cc2)CCN(c2ncnc3[nH]ccc23)CC1 [Capivasertib] + CC(C)n1c(=O)n(C)c2cnc3cc(F)c(-c4ccc(OCCCN5CCCCC5)nc4)cc3c21 [AZD1390] (first compound max 10 µM, 7x7, partner max 0.3 µM)	FALSE
Cc1cc2ncnn2cc1Nc1ncc2c(n1)n(C1CCOCC1)c(=O)n2C [AZD7648] + C=CCn1c(=O)c2cnc(Nc3ccc(N4CCN(C)CC4)cc3)nc2n1-c1cccc(C(C)(C)O)n1 [AZD1775] (first compound max 10 µM, partner max 1 µM)	FALSE
NC1(C(=O)N[C@@H](CCO)c2ccc(Cl)cc2)CCN(c2ncnc3[nH]ccc23)CC1 [Capivasertib] + CCN(CCO)CCCOc1ccc2c(Nc3cc(CC(=O)Nc4cccc(F)c4)[nH]n3)ncnc2c1 [AZD2811] (first compound max 10 µM, 7x7, partner max 1 µM)	TRUE
COc1cccc(OCCCN)c1-c1cc(Nc2cnc(C#N)cn2)n[nH]1 [Prexasertib] + CN(C)CCCOc1ccc(-c2ccc3ncc4c(c3c2)n(C2CCOCC2)c(=O)n4C)cn1 [AZD0156] (first compound max 1 µM, 7x7, partner max 1 µM)	TRUE
